- System: A2780
- Assay notes: MTT assay, A2780 (parental sensitive)
- Type: cell-based
- Details: Homo sapiens, A2780; 72 h treatment; ± standard deviation; parental sensitive model; read-out: IC50 determined by MTT assays, A2780
pIC50: −log10 of the molar value.
Outcome measure: pIC50

Qu. Quick one: pIC50 for C=C[C@]1(C)C=C2[C@@H](O)[C@@]3(O)OC(=O)[C@@]4(CCCC(C)(C)[C@H]34)[C@@]2(O)CC1 [Compound 15, sphaeropsidin B, reference compound] ?
Ans. < 4.00

---

- System: A549, SKMEL-28, U373, MCF7, Hs683, B16F10
- Assay notes: MTT colorimetric assay, mean of the six cell lines
- Type: cell-based
- Details: 72 h, mean over the six cell lines; 72 h treatment; read-out: IC50 determined by MTT assays, Mean
Outcome measure: pIC50
# pIC50 is unitless: minus log10 of the molar concentration; print number only

Qu. Item C=CC1(C)C=C2C(=O)C3(OC(=O)CCCCC(=O)O)OC(=O)C4(CCCC(C)(C)C34)C2(O)CC1 (stereo not shown) has what recorded pIC50?
Ans. 5.77

Qu. Entry C#CCCCC(=O)OC12OC(=O)C3(CCCC(C)(C)C13)C1(O)CCC(C)(C=C)C=C1C2=O (stereo not shown) : reported pIC50 = ?
Ans. 5.56

Qu. Please look up its pIC50: CC1(C=CCCCc2ccc3ccc4cccc5ccc2c3c45)C=C2C(O)C3(O)OC(=O)C4(CCCC(C)(C)C34)C2(O)CC1 (stereo not shown)
Ans. 5.16

---

- Tested on: SKMEL-28
- Assay notes: MTT colorimetric assay, SKMEL-28
- Format: cell-based
- Details: Homo sapiens, SK-MEL-28; 72 h treatment; mean ± SEM; resistant to apoptosis; read-out: IC50 determined by MTT assays, SKMEL-28
Outcome measure: pIC50
Just so you know, pIC50 here is -log10 of the concentration in molar units; reply with that number alone.

C=C[C@]1(C)C=C2C(=O)[C@@]3(O)OC(=O)[C@@]4(CCCC(C)(C)[C@H]34)[C@@]2(O)CC1 [Compound 1, sphaeropsidin A, reference compound] : 5.63
CC1(C=CCCOc2cccc3ccccc23)C=C2C(=O)C3(O)OC(=O)C4(CCCC(C)(C)C34)C2(O)CC1 (centres unmarked) : 5.61
CC1(C=CCCCCc2ccc3ccc4cccc5ccc2c3c45)C=C2C(=O)C3(O)OC(=O)C4(CCCC(C)(C)C34)C2(O)CC1 (centres unmarked) : 6.43
C=C[C@]1(C)C=C2[C@@H](O)[C@@]3(O)OC(=O)[C@@]4(CCCC(C)(C)[C@H]34)[C@@]2(O)CC1 [Compound 15, sphaeropsidin B, reference compound] : 4.23

Qu. Fill in: pIC50 of C=CC1(C)C=C2C(=O)C3(OC(=O)CCCCC(=O)O)OC(=O)C4(CCCC(C)(C)C34)C2(O)CC1 (centres unmarked) is ___
Ans. 5.79

Qu. Report pIC50 for C=CC1(C)C=C2C(=O)C3(OC(=O)c4ccccc4)OC(=O)C4(CCCC(C)(C)C34)C2(O)CC1 (centres unmarked) please.
Ans. 5.64

Qu. For COC(=O)CCCC=CC1(C)C=C2C(=O)C3(O)OC(=O)C4(CCCC(C)(C)C34)C2(O)CC1 (centres unmarked) , what is its reported pIC50?
Ans. 5.56

---

- System: Hct116
- Assay notes: MTT assay, Hct116 (parental sensitive)
- Format: cell-based
- Details: Homo sapiens, HCT-116; 72 h treatment; ± standard deviation; parental sensitive model; read-out: IC50 determined by MTT assays, Hct116
Outcome measure: IC50

Qu. Name the reported IC50 value associated with the compound C=C[C@]1(C)C=C2[C@@H](O)[C@@]3(O)OC(=O)[C@@]4(CCCC(C)(C)[C@H]34)[C@@]2(O)CC1 [Compound 15, sphaeropsidin B, reference compound]
Ans. > 100 µM

---

- Test system: A2780
- Assay notes: MTT assay, A2780 (parental sensitive)
- Assay type: cell-based
- Details: Homo sapiens, A2780, 72 h, read-out: IC50 determined by MTT assays, A2780
- Excerpt: Cancer cell lines were obtained from either the European Collection of Cell Cultures (ECACC; Salisbury, UK) or the American Type Culture Collection (ATCC; Manassas, VA). The two glioma cell lines were the U373 (ECACC code 08061901) and Hs683 (ATCC HTB-138) cell lines. The carcinoma cell lines were the A549 non-small cell carcinoma cell line (ATCC code CCL 185) and the MCF-7 mammary breast carcinoma cell line (ATCC code HTB-22). […] SI Table 1: IC50 determined by MTT assays. […]
Each item that follows carries a reported pIC50.
Interpret pIC50 as the negative base-10 log of the concentration measured in mol/L.

Recorded pIC50, per entry:
C=C[C@]1(C)C=C2C(=O)[C@@]3(O)OC(=O)[C@@]4(CCCC(C)(C)[C@H]34)[C@@]2(O)CC1 [Compound 1, sphaeropsidin A, reference compound] : 5.62
CC1(C=CCCCc2ccc3ccc4cccc5ccc2c3c45)C=C2C(=O)C3(O)OC(=O)C4(CCCC(C)(C)C34)C2(O)CC1 (stereo not drawn) [Compound 13] : 5.80

Qu. Find pIC50 (A2780) for the entry CC1(C=CCCCc2ccc3ccc4cccc5ccc2c3c45)C=C2C(O)C3(O)OC(=O)C4(CCCC(C)(C)C34)C2(O)CC1 (stereo not drawn) [Compound 16]
Ans. 5.11

---

- Test system: KB-3-1
- Assay notes: MTT assay, KB-3-1 (parental sensitive)
- Type: cell-based
- Details: Homo sapiens, KB 3-1, 72 h, read-out: IC50 determined by MTT assays, KB-3-1
Quick reference for IC50 among some compounds
The figure you give is taken to be in µM; do not add the unit.

CC1(C=CCCCc2ccc3ccc4cccc5ccc2c3c45)C=C2C(O)C3(O)OC(=O)C4(CCCC(C)(C)C34)C2(O)CC1 (stereo not shown) [Compound 16] : 13.8
COc1cccc2c1C(=O)c1c(O)c3c(c(O)c1C2=O)C[C@@](O)(C(=O)CO)C[C@@H]3O[C@H]1C[C@H](N)[C@H](O)[C@H](C)O1 [doxorubicin] : 0.059
C=C[C@]1(C)C=C2C(=O)[C@@]3(O)OC(=O)[C@@]4(CCCC(C)(C)[C@H]34)[C@@]2(O)CC1 [Compound 1, sphaeropsidin A, reference compound] : 5.4

Attention now turns to another entry.
Qu. Bench note: what IC50 did CC1(C=CCCCc2ccc3ccc4cccc5ccc2c3c45)C=C2C(=O)C3(O)OC(=O)C4(CCCC(C)(C)C34)C2(O)CC1 (stereo not shown) [Compound 13] show?
Ans. 1.9

---

- Tested on: A549
- Assay notes: MTT colorimetric assay, A549
- Type: cell-based
- Details: Homo sapiens, 72 h treatment, mean ± SEM of six replicates of one experiment (1: 7, 13: 6 independent experiments), resistant to apoptosis, read-out: IC50 determined by MTT assays, A549
Mark Met only when IC50 stays strictly below 2000 nM. Values equal to the cut-off are Not met.

C#CCCCC(=O)OC12OC(=O)C3(CCCC(C)(C)C13)C1(O)CCC(C)(C=C)C=C1C2=O (centres unmarked) : Not met
CC1(C=CCCCc2ccc3ccc4cccc5ccc2c3c45)C=C2C(=O)C3(O)OC(=O)C4(CCCC(C)(C)C34)C2(O)CC1 (centres unmarked) : Met
CC1(C=CCCCCBr)C=C2C(=O)C3(O)OC(=O)C4(CCCC(C)(C)C34)C2(O)CC1 (centres unmarked) : Not met
CCCCC=CC1(C)C=C2C(=O)C3(O)OC(=O)C4(CCCC(C)(C)C34)C2(O)CC1 (centres unmarked) : Met
COC(=O)CCCC=CC1(C)C=C2C(=O)C3(O)OC(=O)C4(CCCC(C)(C)C34)C2(O)CC1 (centres unmarked) : Not met

Qu. Identify whether the molecule COC(=O)CCC=CC1(C)C=C2C(=O)C3(O)OC(=O)C4(CCCC(C)(C)C34)C2(O)CC1 (centres unmarked) records IC50 below 2000 nM.
Ans. Not met

---

- Tested on: Hct116
- Assay notes: MTT assay, Hct116 (parental sensitive)
- Assay type: cell-based
- Details: 72 h treatment; ± standard deviation; parental sensitive model; read-out: IC50 determined by MTT assays, Hct116
Outcome measure: IC50 (µM)
Express the result in µM but write the number alone.

Qu. Reported IC50 for O=C1[O][Pt]2([NH][C@@H]3CCCC[C@H]3[NH]2)[O]C1=O [oxaliplatin] : what is it?
Ans. 0.6

---

- Tested on: A549, SKMEL-28, U373, MCF7, Hs683, B16F10
- Assay notes: MTT colorimetric assay, mean of the six cell lines
- Assay type: cell-based
- Details: 72 h, mean over the six cell lines; 72 h treatment; read-out: IC50 determined by MTT assays, Mean
Property: pIC50; scope: individual compounds
Scale note: pIC50 = -log10(concentration in M).

Before answering, review these 6 worked examples.
CC1(C=CCCBr)C=C2C(=O)C3(O)OC(=O)C4(CCCC(C)(C)C34)C2(O)CC1 (stereo not shown) : 5.57
COC(=O)CCCC=CC1(C)C=C2C(=O)C3(O)OC(=O)C4(CCCC(C)(C)C34)C2(O)CC1 (stereo not shown) : 5.58
CCCCC=CC1(C)C=C2C(=O)C3(O)OC(=O)C4(CCCC(C)(C)C34)C2(O)CC1 (stereo not shown) : 6.06
CC1(C=CCCCCBr)C=C2C(=O)C3(O)OC(=O)C4(CCCC(C)(C)C34)C2(O)CC1 (stereo not shown) : 5.42
C=CC1(C)C=C2C(=O)C3(OC(=O)c4ccccc4)OC(=O)C4(CCCC(C)(C)C34)C2(O)CC1 (stereo not shown) : 5.68
CC1(C=CCCc2ccc3ccc4cccc5ccc2c3c45)C=C2C(=O)C3(O)OC(=O)C4(CCCC(C)(C)C34)C2(O)CC1 (stereo not shown) : 5.85

Qu. # lookup: pIC50 of CC1(C=CCCCc2ccc3ccc4cccc5ccc2c3c45)C=C2C(=O)C3(O)OC(=O)C4(CCCC(C)(C)C34)C2(O)CC1 (stereo not shown)
Ans. 6.52
